Biological target: C-Rel subunit;p52 subunit (Homo sapiens;Homo sapiens, UniProt Q04864;Q00653 1-285;4-332)
Sequence 1: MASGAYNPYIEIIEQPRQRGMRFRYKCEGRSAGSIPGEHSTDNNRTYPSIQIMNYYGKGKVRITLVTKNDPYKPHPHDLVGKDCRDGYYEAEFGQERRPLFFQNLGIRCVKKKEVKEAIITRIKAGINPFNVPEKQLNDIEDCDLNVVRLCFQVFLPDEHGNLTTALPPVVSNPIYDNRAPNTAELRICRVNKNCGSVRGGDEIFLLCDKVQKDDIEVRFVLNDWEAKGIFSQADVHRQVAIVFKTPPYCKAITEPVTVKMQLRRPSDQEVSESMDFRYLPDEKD
Sequence 2: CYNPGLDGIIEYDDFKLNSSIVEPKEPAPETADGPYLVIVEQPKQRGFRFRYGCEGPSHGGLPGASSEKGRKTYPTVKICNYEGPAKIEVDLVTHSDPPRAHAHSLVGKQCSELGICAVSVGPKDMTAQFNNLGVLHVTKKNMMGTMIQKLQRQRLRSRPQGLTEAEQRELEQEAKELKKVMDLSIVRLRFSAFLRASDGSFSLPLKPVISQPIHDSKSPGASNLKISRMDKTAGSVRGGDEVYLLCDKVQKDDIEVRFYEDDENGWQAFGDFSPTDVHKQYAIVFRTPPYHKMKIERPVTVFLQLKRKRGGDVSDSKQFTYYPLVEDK
Test: protein binding microarray; high values mean tight binding
Settings: dsDNA, one strand shown
Recorded Endpoint: binding signal (z-score)
Just the number in z-score, nothing appended.

Solved entries (count: 3):
[
  {
    "Entry Sequence": "GAAGTGTCCCT",
    "Recorded Endpoint": "binding signal",
    "Observed Value": 0.65
  },
  {
    "Entry Sequence": "AAGTTAGTCCT",
    "Recorded Endpoint": "binding signal",
    "Observed Value": -0.837
  },
  {
    "Entry Sequence": "GAAGGCTCCCT",
    "Recorded Endpoint": "binding signal",
    "Observed Value": -0.773
  }
]

Can you share its binding signal? I mean this sequence: CGATACACCCT
-0.561

Next: CAAATTACCCT
0.784

Try this sequence too: GAGTTATCCCT
-0.00956

Please give the result for CAGTAGCTCCT too.
-1.02

Moving on to GAATGCCTCCT
-0.845

Please give the result for GGGGATTCCCT too.
3.46

And the next one, AGAAAATCCCT ?
1.62

Field entry: AGGATACCCCC
1.24

Please do the same for AAGTGGGCCCT as well.
-0.634

Similarly, AGGTTGGCCCC ?
0.0517

And AGAAGTCTCCT ?
-0.926

Repeat for the following sequence: AGATAAGTCCC
0.335

// query: AGATGCGCCCT
-0.758

Follow-up entry: GAGGAAATCCT
-0.369

And the next one, AAATGGACCCC ?
-0.473

Another sequence: AAGGGAATCCC
1.92

Also, CAAAAAGTCCC please.
2.25

CGATAAGCCCC , same question.
0.31

Further, for CAGGAACTCCC ?
0.208

Okay, and AAGATCTCCCT ?
0.202

Same question, CAGGAAACCCC this time
1.76

Lookup CAAGTAATCCC
-0.302

Here is the next sequence: AGAGAGGTCCT
-0.537
